Biological target: UniProtKB P49327
Sequence (P49327 whole entry, the tested form may be a part): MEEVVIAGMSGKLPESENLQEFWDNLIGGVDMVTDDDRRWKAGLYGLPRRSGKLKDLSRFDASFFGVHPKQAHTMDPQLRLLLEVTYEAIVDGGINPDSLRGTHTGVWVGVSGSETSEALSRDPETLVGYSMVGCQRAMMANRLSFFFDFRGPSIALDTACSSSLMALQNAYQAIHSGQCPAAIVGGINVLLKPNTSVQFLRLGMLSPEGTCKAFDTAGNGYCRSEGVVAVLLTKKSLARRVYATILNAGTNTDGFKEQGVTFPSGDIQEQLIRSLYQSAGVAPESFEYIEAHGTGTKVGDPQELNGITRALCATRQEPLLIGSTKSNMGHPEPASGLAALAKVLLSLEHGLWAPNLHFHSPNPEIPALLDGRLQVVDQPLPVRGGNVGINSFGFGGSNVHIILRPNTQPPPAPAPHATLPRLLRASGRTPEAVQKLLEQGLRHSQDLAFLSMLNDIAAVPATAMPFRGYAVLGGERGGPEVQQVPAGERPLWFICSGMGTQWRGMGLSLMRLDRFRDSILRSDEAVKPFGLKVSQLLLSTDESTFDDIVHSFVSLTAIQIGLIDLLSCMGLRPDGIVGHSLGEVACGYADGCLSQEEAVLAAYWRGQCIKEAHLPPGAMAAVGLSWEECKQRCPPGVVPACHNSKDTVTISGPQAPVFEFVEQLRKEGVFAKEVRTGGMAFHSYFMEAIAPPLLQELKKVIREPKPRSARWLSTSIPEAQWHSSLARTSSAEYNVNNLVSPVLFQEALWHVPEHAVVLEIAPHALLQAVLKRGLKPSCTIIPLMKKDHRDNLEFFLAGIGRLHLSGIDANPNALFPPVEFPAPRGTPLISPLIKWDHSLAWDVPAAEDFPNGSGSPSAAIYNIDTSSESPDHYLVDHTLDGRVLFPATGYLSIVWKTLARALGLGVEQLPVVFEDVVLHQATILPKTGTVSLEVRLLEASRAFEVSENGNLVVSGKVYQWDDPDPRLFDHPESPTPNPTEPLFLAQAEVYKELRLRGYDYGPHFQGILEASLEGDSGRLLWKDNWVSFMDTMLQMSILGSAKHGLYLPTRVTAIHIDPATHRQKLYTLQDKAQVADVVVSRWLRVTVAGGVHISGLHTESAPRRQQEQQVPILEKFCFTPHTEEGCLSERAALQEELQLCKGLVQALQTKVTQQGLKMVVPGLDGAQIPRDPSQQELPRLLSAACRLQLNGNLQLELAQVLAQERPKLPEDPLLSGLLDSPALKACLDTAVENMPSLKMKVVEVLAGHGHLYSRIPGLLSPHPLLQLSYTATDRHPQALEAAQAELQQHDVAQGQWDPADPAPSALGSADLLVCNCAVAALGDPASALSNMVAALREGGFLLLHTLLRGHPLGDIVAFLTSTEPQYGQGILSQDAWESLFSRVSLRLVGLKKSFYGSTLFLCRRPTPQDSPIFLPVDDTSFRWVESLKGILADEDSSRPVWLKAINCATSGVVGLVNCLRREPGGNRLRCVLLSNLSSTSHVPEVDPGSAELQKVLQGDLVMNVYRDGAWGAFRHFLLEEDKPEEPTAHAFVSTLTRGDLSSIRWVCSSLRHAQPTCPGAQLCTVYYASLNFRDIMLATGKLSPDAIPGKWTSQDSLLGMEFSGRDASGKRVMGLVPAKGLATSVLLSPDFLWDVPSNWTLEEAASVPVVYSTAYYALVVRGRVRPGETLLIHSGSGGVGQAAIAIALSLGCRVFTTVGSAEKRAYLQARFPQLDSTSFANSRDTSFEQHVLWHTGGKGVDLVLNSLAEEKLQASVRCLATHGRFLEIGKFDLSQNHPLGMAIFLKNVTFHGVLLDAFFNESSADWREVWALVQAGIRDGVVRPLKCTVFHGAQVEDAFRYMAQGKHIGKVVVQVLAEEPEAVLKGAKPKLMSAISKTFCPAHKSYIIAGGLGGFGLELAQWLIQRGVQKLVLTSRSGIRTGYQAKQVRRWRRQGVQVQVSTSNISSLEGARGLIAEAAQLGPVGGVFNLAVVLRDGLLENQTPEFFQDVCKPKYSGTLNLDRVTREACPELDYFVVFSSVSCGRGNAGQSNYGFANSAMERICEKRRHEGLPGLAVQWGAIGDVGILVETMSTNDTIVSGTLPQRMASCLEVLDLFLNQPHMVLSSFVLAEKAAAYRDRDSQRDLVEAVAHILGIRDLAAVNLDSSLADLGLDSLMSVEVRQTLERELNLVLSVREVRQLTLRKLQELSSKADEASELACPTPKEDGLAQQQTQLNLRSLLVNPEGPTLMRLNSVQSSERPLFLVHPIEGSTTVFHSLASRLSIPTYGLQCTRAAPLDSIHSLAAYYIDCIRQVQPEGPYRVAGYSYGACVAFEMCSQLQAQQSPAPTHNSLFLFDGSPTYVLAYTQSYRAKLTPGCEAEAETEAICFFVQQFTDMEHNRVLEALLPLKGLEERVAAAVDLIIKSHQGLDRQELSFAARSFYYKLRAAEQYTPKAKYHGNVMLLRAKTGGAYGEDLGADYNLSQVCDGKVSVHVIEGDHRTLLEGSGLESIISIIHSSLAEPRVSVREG
Assay: FAS thioesterase domain inhibitors, dose response, biochemical, endpoint fluorescence intensity, uHTS hits (AID 624327);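 also: fluorescence from hydrolysis of an O-methyl fluorescein acyl ester substrate by the enzyme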
Type: functional
Active and inactive are the calls of the source.
assay endpoint: IC50

Before answering, review these 4 worked examples.
molecule	experimental target	IC50
COc1ccc(C(=O)Nc2cc([N+](=O)[O-])ccc2N2CCCC2)cc1	UniProtKB P49327	15.1 µM (active)
C[C@H](NC(=O)c1[nH]cnc1C(=O)N[C@@H](CCCCNC(=O)OC(C)(C)C)C(=O)OC(C)(C)C)C(=O)OCc1ccccc1	UniProtKB P49327	0.349 µM (active)
O=C(O)CC(NC(=O)C(c1ccccc1)c1ccccc1)c1cccc([N+](=O)[O-])c1 (stereo not given)	UniProtKB P49327	9.02 µM (active)
O=C(CSc1nc2ccccc2n1S(=O)(=O)c1cccc([N+](=O)[O-])c1)NCCc1ccccc1	UniProtKB P49327	3.67 µM (active)

Then this molecule:
Query: Reported IC50, molecule Cc1cc(C)c(C#N)c(SCC(=O)c2ccc(Cl)cc2Cl)n1 : ____
Reply: 7.15 µM (active)

* * *

Target: Cytochrome P450 2C19 (Homo sapiens)
Sequence (P33261 whole entry): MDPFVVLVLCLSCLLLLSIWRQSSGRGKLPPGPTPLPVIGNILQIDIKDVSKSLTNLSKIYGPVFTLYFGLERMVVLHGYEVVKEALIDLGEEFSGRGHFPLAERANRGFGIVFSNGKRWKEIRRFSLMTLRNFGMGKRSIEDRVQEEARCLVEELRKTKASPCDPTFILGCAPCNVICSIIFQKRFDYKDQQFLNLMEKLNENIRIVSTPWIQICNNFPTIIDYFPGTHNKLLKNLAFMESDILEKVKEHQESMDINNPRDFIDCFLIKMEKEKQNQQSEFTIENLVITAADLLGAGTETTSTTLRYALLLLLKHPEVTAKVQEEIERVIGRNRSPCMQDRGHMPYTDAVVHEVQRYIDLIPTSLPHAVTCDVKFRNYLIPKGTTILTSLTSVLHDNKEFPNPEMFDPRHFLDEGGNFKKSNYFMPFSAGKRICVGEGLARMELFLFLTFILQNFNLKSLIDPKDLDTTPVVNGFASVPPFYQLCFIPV
Test: Cytochrome panel assay with activity outcomes. Panel member name: p450-cyp2c19 Compounds with AC50 equal or less than 10 uM are considered active
Format: functional
Conditions: read-out: AC50
assay endpoint: AC50

Solved entries (count: 8):
compound	assay endpoint	test result
CNc1cc(N2CCCCCC2)ccc1[N+](=O)[O-]	AC50	3.55 µM (inconclusive)
CCCS(=O)(=O)N1CCCC(C(=O)NCCCN2CCN(c3cccc(Cl)c3)CC2)C1 (centres undefined)	AC50	14.1 µM (inconclusive)
c1ccc(CN2CCC3(CCCc4ccccc43)CC2)cc1	AC50	10 µM (inconclusive)
Cc1c(C(=O)N/N=C/c2ccccc2)sc(=S)n1C	AC50	25.1 µM (inconclusive)
CC(=O)c1cccc(NC(=O)/C(=C\c2ccco2)NC(=O)c2cccs2)c1	AC50	11.2 µM (inconclusive)
CC1=[N+]([O-])C2(C)CCCCC2(O)[N+]([O-])=C1C (centres undefined)	AC50	15.8 µM (inconclusive)
N#Cc1cccc(-c2nccc(NCc3cccnc3)n2)c1	AC50	20 µM (inconclusive)
C[C@@](N)(C(=O)O)c1cccc(CC(=O)O)c1	AC50	20 µM (inconclusive)

Query: For the compound shown here, COc1ccc(/C=N/NC(=O)c2sccc2OCc2ccc(F)cc2)cc1OC , give the reported AC50.
Reply: 17.8 µM (inconclusive)

* * *

# collection of AC50 values tested on Cytochrome P450 2D6 (Homo sapiens);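 also: CYP2D6 member of a cytochrome P450 panel assay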
# Sequence (P10635 whole entry): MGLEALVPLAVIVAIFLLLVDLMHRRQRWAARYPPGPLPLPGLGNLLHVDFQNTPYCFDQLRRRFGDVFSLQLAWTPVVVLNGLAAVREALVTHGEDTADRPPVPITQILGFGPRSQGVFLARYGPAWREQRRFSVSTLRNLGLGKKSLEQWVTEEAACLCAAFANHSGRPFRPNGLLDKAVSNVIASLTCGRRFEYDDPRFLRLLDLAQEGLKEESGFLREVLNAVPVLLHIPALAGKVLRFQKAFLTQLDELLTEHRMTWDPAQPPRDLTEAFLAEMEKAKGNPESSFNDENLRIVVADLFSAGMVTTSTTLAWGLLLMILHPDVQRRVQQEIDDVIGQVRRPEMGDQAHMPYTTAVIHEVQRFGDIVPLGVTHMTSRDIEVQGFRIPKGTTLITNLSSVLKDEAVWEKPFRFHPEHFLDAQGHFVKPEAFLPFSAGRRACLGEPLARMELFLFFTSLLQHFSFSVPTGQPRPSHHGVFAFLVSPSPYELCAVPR

compound	AC50
Cc1noc(C)c1-c1nccc(NCc2cccnc2)n1	20 µM (inconclusive)
Cc1c(C(=O)N/N=C/c2ccccc2)sc(=S)n1C	0.01 µM (inconclusive)
CCCCN(CC)S(=O)(=O)c1ccc(C(=O)Nc2nnc(CSC)o2)cc1	35.5 µM (inconclusive)
CCC(C)N1C(=O)S/C(=C/c2ccc(Sc3nc4ccccc4[nH]3)o2)C1=O (stereo not given)	3.98 µM (inconclusive)

As a next step, examine the compound that follows.
Query: For the compound CCCCC#Cc1ccccc1CC(=O)Nc1ccccc1 , what AC50 is on record?
Reply: 12.6 µM (inconclusive)
